Attribution: patent US8399465B2

Target: recombinant human LTA4 hydrolase (rhLTA4H) (Homo sapiens, UniProt P09960)
Construct: made in house; host or cells: Spodoptera frugiperda (Sf-9) cells, baculovirus (pFastBac1)
Sequence (P09960 whole entry): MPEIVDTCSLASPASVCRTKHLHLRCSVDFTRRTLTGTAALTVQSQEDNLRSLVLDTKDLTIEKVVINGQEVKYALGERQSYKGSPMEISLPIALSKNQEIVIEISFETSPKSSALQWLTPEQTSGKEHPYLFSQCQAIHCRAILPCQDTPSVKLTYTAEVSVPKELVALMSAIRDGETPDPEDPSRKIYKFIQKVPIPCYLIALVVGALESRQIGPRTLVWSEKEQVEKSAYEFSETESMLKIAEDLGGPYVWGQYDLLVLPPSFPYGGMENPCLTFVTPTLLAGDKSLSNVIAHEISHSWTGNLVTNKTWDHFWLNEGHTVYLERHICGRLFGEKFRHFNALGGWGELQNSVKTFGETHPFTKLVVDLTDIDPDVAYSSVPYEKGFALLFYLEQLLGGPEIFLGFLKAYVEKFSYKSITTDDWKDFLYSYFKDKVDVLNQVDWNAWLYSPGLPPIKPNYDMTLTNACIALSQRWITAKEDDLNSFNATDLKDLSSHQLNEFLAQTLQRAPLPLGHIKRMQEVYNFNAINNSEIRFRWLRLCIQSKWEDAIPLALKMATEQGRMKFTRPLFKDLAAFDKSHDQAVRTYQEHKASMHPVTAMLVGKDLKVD
Experiment: Recombinant human LTA4 hydrolase assay for LTA4 hydrolase inhibitor activity
Type: biochemical
Settings: rhLTA4H, LTB4 by immunoassay; single determination or average of two or more; mark after value = form tested: ′ free base, ″ hydrochloride, ^ formate; read-out: IC50
Where a name gives a salt, the structure may show the parent alone.
assay.readout: IC50
The answer should read as a number with its unit following.

Solved entries (count: 8):
NC1CCN(Cc2c[nH]c3cc(Oc4nc5ccccc5s4)ccc23)CC1 [Example 50] | 28 nM
c1cnc2nc(Oc3ccc4cc(CN5CCCCC5)sc4c3)sc2c1 [Example 136] | 117 nM
CCN(CC)Cc1coc2cc(Oc3nc4ncccc4s3)ccc12 [Example 219] | 2 nM
CCN(CC)Cc1cc2ccc(Oc3nc4ncccc4s3)cc2o1 [Example 198, formate] | 11 nM
CC(=O)N[C@H]1C[C@H]2CC[C@@H](C1)N2Cc1c[nH]c2cc(Oc3nc4ncccc4s3)ccc12 [Example 18] | 1 nM
c1cnc(OC2CCN(Cc3cc4cc(Oc5nc6ncccc6s5)ccc4o3)CC2)nc1 [Example 89] | 149 nM
C[C@H]1COCCN1Cc1coc2cc(Oc3nc4ncccc4s3)ccc12 [Example 159] | 16 nM
c1ccc2sc(Oc3ccc4c(CN5CCCCC5)coc4c3)nc2c1 [Example 405] | 77 nM

Please find the next molecule below.
Req: I have this molecule here, CCCNCc1coc2cc(Oc3nc4ncccc4s3)ccc12 [Example 303, formate] , and I need its recorded IC50.
Resp: 11 nM
